Test: RP, Agilent ZORBAX Eclipse Plus C18, 150 × 2.1 mm, 3.5 µm, 40 °C, 0.3 mL/min, estimated dead time 1.1 min; A: water + 0.1% formic acid; B: acetonitrile + 0.1% formic acid; gradient (min/%B) 0/2 1/2 2/20 16.5/98 22/98
Conditions: stereoisomer not certain
readout-type: LC retention time

compound	readout-type	recorded-result
Cc1cc(C(C)(C)C)c(O)c(C)c1CC1=NCCN1	LC retention time	7.43 min
O=c1c(-c2ccc(O)cc2)coc2cc(O)ccc12	LC retention time	7.74 min
COc1ccccc1NC(C)=O	LC retention time	7.37 min
COc1ccc(OC)cc1	LC retention time	10.1 min
CCNc1nc(NC(C)C)nc(SC)n1	LC retention time	8.65 min
COc1cc(C(=O)O)cc(OC)c1OC	LC retention time	7.63 min
CCC(C(N)=O)N1CCCC1=O (stereo not drawn)	LC retention time	5.14 min
COc1ccc2c3c1OC1C(=O)C=CC4(O)C(C2)N(C)CCC314 (stereo not drawn)	LC retention time	5.37 min

// provenance: the RepoRT retention time repository (doi:10.1016/j.chroma.2015.11.014)
